I'd be grateful if you could share measured growth inhibition for these entries.
Experiment: NCI Yeast Anticancer Drug Screen. Data for the cln2 rad14 strain (AID 165);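 further: 0% = growth equal to vehicle treated cultures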
Conditions: S. cerevisiae cln2 rad14 strain, at 50.0 µM, hits give high values
About 79,000 compounds went through this panel and 15% of them were active in at least one assay; those are over-represented in the sample as a whole.
Return type: number; implicit unit %.

**Q:** Using the record for CC(=O)Nc1ccc(S(=O)(=O)n2c(=O)oc3cc(Br)ccc32)cc1 , state its measured growth inhibition.
**A:** 2.35

**Q:** Look up and state reported growth inhibition for CSC(=N\N=C\c1c(F)cccc1Cl)/N=C/N(C)C
**A:** 14.8

**Q:** Tell me growth inhibition reported for O=c1c(SCc2ccc(Cl)c(Cl)c2)c(SCc2ccc(Cl)c(Cl)c2)cnn1-c1ccccc1
**A:** -1.6

**Q:** Supply measured growth inhibition of O=c1[nH]nc(SCc2ccccc2)c(=O)[nH]1 in your reply.
**A:** -5.8

**Q:** Supply reported growth inhibition belonging to this molecule: O=C(COc1cccc(Cl)c1)Nc1ccc(Cl)cc1
**A:** -13.8

**Q:** Let me know recorded growth inhibition for COC(=O)c1cc(C(=O)OC)c2c3[nH]cnc3ncn2c1=O , thanks.
**A:** 18.6

**Q:** In one line, give reported growth inhibition of the entry CCN(CC)CC(O)c1cccc2cc(Cl)ccc12 (stereo not drawn) .
**A:** -15.2

**Q:** Return reported growth inhibition. Input molecule: COC12C=CC(CC1)C(C)(C)C2=O (stereo not drawn)
**A:** 3.2

**Q:** Return the recorded growth inhibition value; entry: NC(=O)NCCCC1NC(=S)N(c2ccccc2)C1=O (stereo not drawn)
**A:** -2.95

**Q:** Give the reported growth inhibition for this molecule. CC(C)C(O)C(C)(C)CO (stereo not drawn)
**A:** 2.3

**Q:** Give the reported value of growth inhibition for this record: O=C(C[n+]1ccccc1)c1ccc([N+](=O)[O-])cc1
**A:** -30.1

**Q:** Fill in reported growth inhibition for this entry: C1CSC[C@H]2COC[C@@H](CSCCS1)S2
**A:** 18.9

**Q:** Give the value of growth inhibition reported for the following: Cc1nc2ccc(Cl)cc2c(=O)[nH]1
**A:** -57.2

----------
Test: NCI Yeast Anticancer Drug Screen. Data for the cln2 rad14 strain (AID 165);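 further: 0% = growth equal to vehicle treated cultures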
Conditions: S. cerevisiae cln2 rad14 strain, at 50.0 µM
Compounds without any hit were thinned out: in the full panel of roughly 79,000, 15% have a hit. Calls of active or inactive are those of the source. Rule as the data show it: active = growth inhibition above about 70%; inactive = the rest.
Log the outcome using a class from active, inactive

**Q:** Call for entry CCCCOC(=O)C(C)OC(=O)COc1ccc(Cl)cc1C (stereo unspecified) :
**A:** inactive

**Q:** Called result for CC(=O)NC1C(=O)N(c2ccccc2)N=C1C (stereo unspecified)
**A:** inactive

**Q:** So what was the verdict on O=C1Nc2ccc3c4c(ccc1c24)CC3 in this test?
**A:** inactive

**Q:** Which outcome did this test record for the molecule CCO/C=C1/N=C(c2cccc3ccccc23)OC1=O ?
**A:** inactive

**Q:** Record request — test call for O=C1C(=O)C([n+]2cccc3ccccc32)=C([O-])C2=C1C1c3ccccc3C2c2ccccc21
**A:** active

**Q:** Could you check what this test reported for CC(C)(C)c1cc(Br)c(O)c(CN(Cc2cc(C(C)(C)C)cc(Br)c2O)C2CCCCC2)c1 ?
**A:** inactive

**Q:** What is the recorded call for this molecule in the test? CC(C)NC1(C#N)CCN(Cc2ccccc2)CC1
**A:** inactive

**Q:** Test call for this molecule, please: CC1CC[P+](C)(Cc2ccccc2)C1 (mixture of isomers)
**A:** inactive

**Q:** Outcome? Cc1cc(-c2ccc([NH2+][B-](F)(F)F)c(C)c2)ccc1[NH2+][B-](F)(F)F
**A:** inactive

**Q:** For this molecule, state the assay outcome: NC1=NN(c2ccccc2)C(=O)C1/C(=N\NC(=O)c1cc2ccccc2cc1O)C(=O)Nc1ccc(Cl)c(Cl)c1 (stereo unspecified)
**A:** inactive

**Q:** Recorded test call requested for Cc1cc(C)c(C(=O)c2ccccc2C)c(C)c1
**A:** inactive
